Form field: IC50 (one value per entry).
- Test system: MDA-MB-231
- Measurement Description: Cell proliferation with the MTT assay
- Format: cell-based, human
- Conditions: read-out: IC50 (Inhibitory concentration 50%), MDA-MB-231, breast, ER−, NR = IC50 not reach at the concentrations tested

Compound	Modifier Sign	IC50 / µM
C[C@]12CCC3c4ccc(O)cc4CCC3C1C[C@@](CO)(CCCCCCCCNCc1ccccn1)[C@@H]2O.[Cl][Pt][Cl] (some centres unmarked) [derivative 14 (∘ = 1, p = 6)]	=	40
C[C@]12CCC3c4ccc(O)cc4CCC3C1C[C@@](CO)(CCCCCCCCCCNCc1ccccn1)[C@@H]2O.[Cl][Pt][Cl] (some centres unmarked) [derivative 14 (∘ = 1, p = 8)]	=	15.3
C[C@]12CCC3c4ccc(O)cc4CCC3C1C[C@@](CO)(CCCCCCCCNCCc1ccccn1)[C@@H]2O.[Cl][Pt][Cl] (some centres unmarked) [derivative 14 (∘ = 2, p = 6)]	=	10.5
C[C@]12CCC3c4ccc(O)cc4CCC3C1C[C@@](CO)(CCCCCCCCCCNCCc1ccccn1)[C@@H]2O.[Cl][Pt][Cl] (some centres unmarked) [derivative 14 (∘ = 2, p = 8)]	=	4
C[C@]12CCC3c4ccc(O)cc4CCC3C1C[C@@](CO)(CCCCCCNCc1ccccn1)[C@@H]2O.[Cl][Pt][Cl] (some centres unmarked) [derivative 14 (∘ = 1, p = 4)]	>	40
C[C@]12CCC3c4ccc(O)cc4CCC3C1C[C@@](CO)(CCCCCCNCCc1ccccn1)[C@@H]2O.[Cl][Pt][Cl] (some centres unmarked) [derivative 14 (∘ = 2, p = 4)]	>	40
C[C@]12CCC3c4ccc(O)cc4CCC3C1C[C@@](CO)(CCCCNCCc1ccccn1)[C@@H]2O.[Cl][Pt][Cl] (some centres unmarked) [derivative 14 (∘ = 2, p = 2)]	>	40
C[C@]12CCC3c4ccc(O)cc4CCC3C1C[C@@](CO)(CCCCNCc1ccccn1)[C@@H]2O.[Cl][Pt][Cl] (some centres unmarked) [derivative 14 (∘ = 1, p = 2)]	>	40

* * *

- System: HS578T
- Measurement Description: Cell proliferation with the MTT assay
- Type: cell-based, human
- Conditions: read-out: IC50 (Inhibitory concentration 50%), breast, ER−, NR = IC50 not reach at the concentrations tested
pIC50: −log10 of the molar value.
Measured Metric: pIC50

> print(dat)
                                   molecule  measured.metric  modifier.sign  value.measured
1  C[C@]12CCC3c4ccc(O)cc4CCC3C1C[C@@](CO)(CCCCCCCCNCCc1ccccn1)[C@@H]2O.[Cl][Pt][Cl] (some centres unmarked)            pIC50              =            5.37
2  C[C@]12CCC3c4ccc(O)cc4CCC3C1C[C@@](CO)(CCCCCCCCCCNCCc1ccccn1)[C@@H]2O.[Cl][Pt][Cl] (some centres unmarked)            pIC50              =            5.48
3  C[C@]12CCC3c4ccc(O)cc4CCC3C1C[C@@](CO)(CCCCCCNCc1ccccn1)[C@@H]2O.[Cl][Pt][Cl] (some centres unmarked)            pIC50              =            4.44
4  C[C@]12CCC3c4ccc(O)cc4CCC3C1C[C@@](CO)(CCCCNCc1ccccn1)[C@@H]2O.[Cl][Pt][Cl] (some centres unmarked)            pIC50              <            4.40
5  C[C@]12CCC3c4ccc(O)cc4CCC3C1C[C@@](CO)(CCCCCCCCCCNCc1ccccn1)[C@@H]2O.[Cl][Pt][Cl] (some centres unmarked)            pIC50              =            4.46
